target_of_assay: YES1 (human) (UniProt P07947)
Sequence (P07947 whole entry, looked up): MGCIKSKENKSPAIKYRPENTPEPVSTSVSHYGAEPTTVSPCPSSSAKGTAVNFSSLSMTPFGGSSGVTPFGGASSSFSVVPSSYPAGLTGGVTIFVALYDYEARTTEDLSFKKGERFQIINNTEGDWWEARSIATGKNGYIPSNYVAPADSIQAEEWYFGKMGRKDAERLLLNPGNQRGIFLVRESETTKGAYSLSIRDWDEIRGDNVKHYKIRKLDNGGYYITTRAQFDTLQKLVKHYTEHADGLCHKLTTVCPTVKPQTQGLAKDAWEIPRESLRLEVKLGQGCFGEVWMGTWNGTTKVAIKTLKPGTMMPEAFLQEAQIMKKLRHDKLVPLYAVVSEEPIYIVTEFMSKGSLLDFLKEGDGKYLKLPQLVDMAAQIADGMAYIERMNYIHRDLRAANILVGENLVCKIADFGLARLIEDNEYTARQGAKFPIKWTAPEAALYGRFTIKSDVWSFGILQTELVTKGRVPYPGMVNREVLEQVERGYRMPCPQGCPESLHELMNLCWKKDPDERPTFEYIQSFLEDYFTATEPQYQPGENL
test_details: radiometric filter-binding kinase assay, Kinase HotSpot
settings: compound 0.5 µM; ATP 10 µM
So basically, if residual activity comes in under 90% it's 1 (yes), and if it's 90% or more it's 0 (no).

1) COc1ccc2c(c1)/C(=C/c1cnc[nH]1)C(O)=N2	1 (yes)
2) c1ccc2c(-c3ccncc3)c[nH]c2c1	0 (no)
3) N#Cc1c[nH]c2c[nH]/c(=N\Cc3cccnc3)cc2/c1=N\c1ccc(F)c(Cl)c1	0 (no)
4) COc1cc2ncnc(Nc3ccc(OCc4ccccc4)cc3)c2cc1OC	1 (yes)
5) Ic1cccc(CSc2nnc(-c3ccncc3)o2)c1	0 (no)
6) COc1cc(Nc2c(C#N)cnc3cc(OCCCN4CCN(C)CC4)c(OC)cc23)c(Cl)cc1Cl	1 (yes)

Req: State whether 90% exceeds residual activity recorded for N#C/C(=C\c1ccc(O)c(O)c1)C(=O)NCc1ccccc1 .
Resp: 0 (no)

Req: Try the compound O=C1Nc2ccc(Br)cc2/C1=C\c1cc2c([nH]1)CCCC2
Resp: 1 (yes)

Req: Can you handle CS(=O)(=O)CCNCc1ccc(-c2ccc3ncnc(Nc4ccc(OCc5cccc(F)c5)c(Cl)c4)c3c2)o1 next?
Resp: 1 (yes)

====

target_of_assay: RPS6KA4 KD2 (human)
test_details: radiometric filter-binding kinase assay, Kinase HotSpot
settings: compound 0.5 µM; ATP 10 µM
observation_type: residual activity (%)
Numbers only, in %.

1. O=C(c1cc2cc(O)ccc2[nH]1)c1cc2cc(O)ccc2[nH]1	81.3
2. CC(C)(C)c1cc(C=C(C#N)C#N)cc(Br)c1O	90.9
3. Cc1cncc2cccc(S(=O)(=O)N3CCCN(C(=O)CN)C[C@H]3C)c12	82.3
4. CN(C)CCCn1cc(C2=C(c3c[nH]c4ccccc34)C(=O)NC2=O)c2ccccc21	34.9
5. COc1cc(Nc2c(C#N)cnc3cc(OCCCN4CCN(C)CC4)c(OC)cc23)c(Cl)cc1Cl	101
6. NC(=O)c1cccc(-c2cc(Nc3ccc(OC(F)(F)F)cc3)ncn2)c1	85.8
7. COc1ccc2c(c1)/C(=C/c1cnc[nH]1)C(O)=N2	76.9
8. COc1ccc(Cl)cc1NC(=O)Nc1cc(C)nc2ccccc12	94

For each listed entry, give its residual activity.
1. CN(C)S(=O)(=O)c1ccc2c(c1)/C(=C/c1cc3c([nH]1)CCCC3)C(=O)N2
2. O=C1NC(=O)c2c1c1c3ccccc3[nH]c1n1cncc21

Resp:
1: 104; 2: 61.3

====

target_of_assay: STK3 (human) (UniProt Q13188)
Sequence (Q13188 whole entry, looked up): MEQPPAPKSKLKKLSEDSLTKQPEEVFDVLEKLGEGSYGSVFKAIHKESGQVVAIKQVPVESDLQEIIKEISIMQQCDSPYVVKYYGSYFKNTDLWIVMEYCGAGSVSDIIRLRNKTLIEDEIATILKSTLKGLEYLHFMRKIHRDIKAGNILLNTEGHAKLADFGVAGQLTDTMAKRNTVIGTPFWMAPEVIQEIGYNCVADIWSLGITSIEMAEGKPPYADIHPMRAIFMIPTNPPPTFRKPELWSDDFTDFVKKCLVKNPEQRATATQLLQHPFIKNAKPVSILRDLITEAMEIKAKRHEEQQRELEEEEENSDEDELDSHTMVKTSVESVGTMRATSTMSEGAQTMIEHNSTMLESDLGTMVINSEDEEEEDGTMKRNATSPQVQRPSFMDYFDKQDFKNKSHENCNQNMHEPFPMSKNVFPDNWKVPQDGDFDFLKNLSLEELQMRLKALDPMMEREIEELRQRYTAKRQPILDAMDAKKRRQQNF
test_details: radiometric filter-binding kinase assay, Kinase HotSpot
settings: compound 0.5 µM; ATP 10 µM
Cut-off 60% on residual activity, inclusive. At or above means y; below means n.

Solved cases (8 shown):
1. Cc1cccc(-c2nc(C(C)(C)C)[nH]c2-c2ccc3c(c2)OCO3)n1	y
2. Cc1nc(-c2ccccc2)c(-c2ccncc2)o1	y
3. C[C@@H]1CCN(C(=O)CC#N)C[C@@H]1N(C)c1ncnc2[nH]ccc12	y
4. COc1cc(Nc2c(C#N)cnc3cc(OCCCN4CCN(C)CC4)c(OC)cc23)c(Cl)cc1Cl	n
5. O=C1NC(=O)c2c1c1c3ccccc3[nH]c1n1cncc21	n
6. CO[C@@H]1[C@H](N(C)C(=O)c2ccccc2)C[C@H]2O[C@]1(C)n1c3ccccc3c3c4c(c5c6ccccc6n2c5c31)C(=O)NC4	n
7. CN(C)S(=O)(=O)c1ccc2c(c1)/C(=C/c1cc3c([nH]1)CCCC3)C(=O)N2	n
8. COc1ccc(S(=O)(=O)N(CCO)c2ccccc2CN(C)C/C=C/c2ccc(Cl)cc2)cc1	y

Turning now to a further record.
Req: Identify whether the reported residual activity of the following molecule is 60% or greater: COc1cc2ncnc(Nc3ccc(Oc4ccccc4)cc3)c2cc1OC
Resp: y

Ref: the kinase profiling compilation of Christmann-Franck et al. (2016)
